Quick reference for PBM E-score among some sequences
- experimentalTarget: Upc2 (UniProt Q12151)
- Sequence: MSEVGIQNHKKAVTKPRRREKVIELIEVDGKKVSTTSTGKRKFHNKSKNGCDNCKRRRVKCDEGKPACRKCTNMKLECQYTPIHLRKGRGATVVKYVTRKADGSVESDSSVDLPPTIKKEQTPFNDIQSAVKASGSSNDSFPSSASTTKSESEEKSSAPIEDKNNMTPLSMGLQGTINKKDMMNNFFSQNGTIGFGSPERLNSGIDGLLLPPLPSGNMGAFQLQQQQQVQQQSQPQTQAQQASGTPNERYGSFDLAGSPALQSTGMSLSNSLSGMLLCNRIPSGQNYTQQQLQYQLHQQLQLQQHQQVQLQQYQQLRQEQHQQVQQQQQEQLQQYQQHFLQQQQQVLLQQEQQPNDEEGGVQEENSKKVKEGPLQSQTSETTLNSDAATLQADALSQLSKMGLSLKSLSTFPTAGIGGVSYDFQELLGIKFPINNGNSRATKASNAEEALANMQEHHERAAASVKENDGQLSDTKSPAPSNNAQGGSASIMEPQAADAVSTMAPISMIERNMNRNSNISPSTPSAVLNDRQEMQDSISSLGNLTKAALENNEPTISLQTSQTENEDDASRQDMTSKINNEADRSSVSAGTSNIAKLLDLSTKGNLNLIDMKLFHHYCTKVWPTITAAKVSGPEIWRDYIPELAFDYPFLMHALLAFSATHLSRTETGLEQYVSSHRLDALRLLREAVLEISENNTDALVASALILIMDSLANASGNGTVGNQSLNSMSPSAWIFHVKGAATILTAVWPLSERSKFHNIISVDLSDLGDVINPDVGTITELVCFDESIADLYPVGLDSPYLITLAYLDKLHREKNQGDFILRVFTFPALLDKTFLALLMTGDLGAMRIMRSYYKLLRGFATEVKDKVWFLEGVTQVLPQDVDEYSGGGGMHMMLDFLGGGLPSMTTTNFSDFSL
- protocolSummary: PBM E-score (8-mer binding enrichment) (E-score (-0.5 to 0.5)); higher = stronger / more preferred TF binding
- measurementSetup: protein concentration: 200 nM; construct: GST-full length
Whole data set: some 33,000 sequences, median “E-score (-0.5 to 0.5)” near -0.043, cut for the highest 2% near 0.37. What follows is part of a selection rich in the highest values, with near analogues and random picks from the rest.
measuredMetric: PBM E-score

[
  {
    "residueSequence": "CGTTAAAG",
    "measuredMetric": "PBM E-score",
    "reportedMeasurement": 0.4
  },
  {
    "residueSequence": "CCGTCCAC",
    "measuredMetric": "PBM E-score",
    "reportedMeasurement": -0.0949
  },
  {
    "residueSequence": "CGTTAAGC",
    "measuredMetric": "PBM E-score",
    "reportedMeasurement": 0.432
  },
  {
    "residueSequence": "ATCGTACC",
    "measuredMetric": "PBM E-score",
    "reportedMeasurement": 0.455
  },
  {
    "residueSequence": "CGTTAAGA",
    "measuredMetric": "PBM E-score",
    "reportedMeasurement": 0.341
  },
  {
    "residueSequence": "CAATACGC",
    "measuredMetric": "PBM E-score",
    "reportedMeasurement": 0.0949
  },
  {
    "residueSequence": "ACGTTCAT",
    "measuredMetric": "PBM E-score",
    "reportedMeasurement": 0.169
  },
  {
    "residueSequence": "AGTTAAAG",
    "measuredMetric": "PBM E-score",
    "reportedMeasurement": 0.0271
  },
  {
    "residueSequence": "AAAAACGT",
    "measuredMetric": "PBM E-score",
    "reportedMeasurement": 0.0237
  },
  {
    "residueSequence": "GTTAGCCA",
    "measuredMetric": "PBM E-score",
    "reportedMeasurement": -0.0759
  },
  {
    "residueSequence": "CAATACGA",
    "measuredMetric": "PBM E-score",
    "reportedMeasurement": 0.419
  },
  {
    "residueSequence": "GAATACGC",
    "measuredMetric": "PBM E-score",
    "reportedMeasurement": 0.175
  },
  {
    "residueSequence": "CGTTAAAC",
    "measuredMetric": "PBM E-score",
    "reportedMeasurement": 0.411
  },
  {
    "residueSequence": "AGCGGGTC",
    "measuredMetric": "PBM E-score",
    "reportedMeasurement": -0.0751
  },
  {
    "residueSequence": "AAATACGC",
    "measuredMetric": "PBM E-score",
    "reportedMeasurement": 0.212
  },
  {
    "residueSequence": "GAAGTGCA",
    "measuredMetric": "PBM E-score",
    "reportedMeasurement": -0.153
  },
  {
    "residueSequence": "CAGTCGCC",
    "measuredMetric": "PBM E-score",
    "reportedMeasurement": -0.196
  },
  {
    "residueSequence": "CAACGCTG",
    "measuredMetric": "PBM E-score",
    "reportedMeasurement": -0.0985
  },
  {
    "residueSequence": "AGAGTAAT",
    "measuredMetric": "PBM E-score",
    "reportedMeasurement": "-6e-05"
  },
  {
    "residueSequence": "ACTGCGCC",
    "measuredMetric": "PBM E-score",
    "reportedMeasurement": -0.147
  },
  {
    "residueSequence": "ACAAATCT",
    "measuredMetric": "PBM E-score",
    "reportedMeasurement": 0.0248
  },
  {
    "residueSequence": "CCCTTATC",
    "measuredMetric": "PBM E-score",
    "reportedMeasurement": -0.205
  }
]

====

- experimentalTarget: Upc2 (UniProt Q12151)
- Sequence: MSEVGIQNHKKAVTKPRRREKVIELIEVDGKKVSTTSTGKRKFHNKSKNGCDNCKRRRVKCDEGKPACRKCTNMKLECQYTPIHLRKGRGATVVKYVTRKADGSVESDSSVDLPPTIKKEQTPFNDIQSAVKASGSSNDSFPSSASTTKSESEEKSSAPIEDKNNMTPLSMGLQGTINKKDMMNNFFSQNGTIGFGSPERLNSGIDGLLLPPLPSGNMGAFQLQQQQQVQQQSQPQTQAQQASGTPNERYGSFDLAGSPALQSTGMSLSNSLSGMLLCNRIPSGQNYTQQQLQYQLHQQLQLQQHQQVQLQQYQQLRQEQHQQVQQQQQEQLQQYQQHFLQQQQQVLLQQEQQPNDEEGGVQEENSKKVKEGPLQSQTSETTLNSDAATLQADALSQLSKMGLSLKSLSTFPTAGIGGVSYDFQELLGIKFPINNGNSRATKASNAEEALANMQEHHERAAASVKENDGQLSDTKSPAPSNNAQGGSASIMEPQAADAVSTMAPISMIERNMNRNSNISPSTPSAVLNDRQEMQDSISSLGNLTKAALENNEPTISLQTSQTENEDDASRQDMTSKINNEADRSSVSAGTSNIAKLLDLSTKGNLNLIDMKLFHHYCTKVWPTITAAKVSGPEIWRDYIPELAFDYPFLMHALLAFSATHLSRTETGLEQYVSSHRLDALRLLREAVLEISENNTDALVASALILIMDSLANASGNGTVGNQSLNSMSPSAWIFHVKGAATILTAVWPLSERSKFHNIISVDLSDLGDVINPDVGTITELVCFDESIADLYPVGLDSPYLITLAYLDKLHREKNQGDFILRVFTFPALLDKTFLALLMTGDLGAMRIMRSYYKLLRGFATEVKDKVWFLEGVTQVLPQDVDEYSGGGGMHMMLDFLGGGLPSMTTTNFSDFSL
- protocolSummary: PBM E-score (8-mer binding enrichment) (E-score (-0.5 to 0.5)); higher = stronger / more preferred TF binding
- measurementSetup: protein concentration: 200 nM; construct: GST-full length
Over roughly 33,000 sequences, “E-score (-0.5 to 0.5)” has its median near -0.043; the highest 2% begin near 0.37. The list comes from a sample in which the highest values are over-represented; it also holds close analogues and randomly drawn sequences.
measuredMetric: PBM E-score

[
  {
    "residueSequence": "ACGAGCGT",
    "reportedMeasurement": 0.386
  },
  {
    "residueSequence": "AAATCTAA",
    "reportedMeasurement": -0.16
  },
  {
    "residueSequence": "CGTAAAAG",
    "reportedMeasurement": 0.405
  },
  {
    "residueSequence": "ACCAAACG",
    "reportedMeasurement": 0.4
  },
  {
    "residueSequence": "CTTAAAAG",
    "reportedMeasurement": -0.0494
  },
  {
    "residueSequence": "ATCTAATC",
    "reportedMeasurement": -0.0686
  },
  {
    "residueSequence": "ACGAGCGG",
    "reportedMeasurement": 0.369
  },
  {
    "residueSequence": "CGTAAAAA",
    "reportedMeasurement": 0.404
  },
  {
    "residueSequence": "GGTAAAAC",
    "reportedMeasurement": 0.0926
  },
  {
    "residueSequence": "GTTGTTTA",
    "reportedMeasurement": 0.0127
  },
  {
    "residueSequence": "CCGAGCGA",
    "reportedMeasurement": 0.193
  },
  {
    "residueSequence": "CGTAAAAC",
    "reportedMeasurement": 0.389
  },
  {
    "residueSequence": "ATAACGAT",
    "reportedMeasurement": 0.144
  },
  {
    "residueSequence": "CACAAACA",
    "reportedMeasurement": -0.0461
  },
  {
    "residueSequence": "ACGAGCGA",
    "reportedMeasurement": 0.379
  },
  {
    "residueSequence": "ACACTGCA",
    "reportedMeasurement": -0.0747
  },
  {
    "residueSequence": "ATCTGTAA",
    "reportedMeasurement": -0.0759
  },
  {
    "residueSequence": "CGTAAACC",
    "reportedMeasurement": 0.364
  },
  {
    "residueSequence": "ACCAAACA",
    "reportedMeasurement": 0.208
  },
  {
    "residueSequence": "TAGTTGGA",
    "reportedMeasurement": -0.109
  },
  {
    "residueSequence": "TGTAAAAA",
    "reportedMeasurement": -0.0321
  },
  {
    "residueSequence": "CCTTATAA",
    "reportedMeasurement": 0.0883
  }
]
